Reference source for all entries: the RNAGym collection of RNA variant scans (doi:10.1002/anie.201605470)

B1: Osa-1-4 twister ribozyme (parent)
chain: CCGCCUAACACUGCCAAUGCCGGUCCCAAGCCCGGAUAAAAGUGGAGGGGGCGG

Variants of: B1
Assay: self-cleavage, relative activity (ratio to wild type); higher = more cleavage; co-transcriptional
Classify by measured self-cleavage: Criterion met if it is equal to or exceeds 0.1, Criterion not met if it is smaller.

> print(dat)
          mut     category.label
 1  C27G G34C  Criterion not met
 2  G35U G54C      Criterion met
 3  C21U C26A  Criterion not met
 4  G23A G48U  Criterion not met
 5  G54C U12G      Criterion met
 6  A40G G30A  Criterion not met
 7  A39U G35A      Criterion met
 8  C25A G13C  Criterion not met
 9  G48U G54U      Criterion met
10  C32A G47A  Criterion not met
11  A40G C11G      Criterion met
12  A10G C26G      Criterion met
13  A36U G34C      Criterion met
14  C15U G48U  Criterion not met
15  A28G A38U      Criterion met
16  A41U U37C      Criterion met
17  A41U G48A  Criterion not met
18  A36G C32G      Criterion met
19  G35C G47U  Criterion not met
20  A16G A29G      Criterion met
21  C26A U43C  Criterion not met
22  A38U C15G      Criterion met
